# Tested on: poliovirus Sabin strain 1 (PV1)
# ASSAY: microbe, parasite or virus in culture
# Type: cell-based
# CONDITION PARAMETERS: Enterovirus C, HeLa, 72 h, read-out: EC50 PV1
pEC50: −log10 of the molar value.
We use 5 as the dividing line for pEC50: on or above the line is yes, below is no.

compound="CCOC(=O)c1ccc(OCCCC2CCN(c3ccc(C)nn3)CC2)cc1 [Pirodavir analog (R78206)]" assigned_category=yes

[in] Could you please find out whether C[C@@]1(O)[C@H](O)[C@@H](CO)O[C@H]1n1cnc2c(N)ncnc21 has pEC50 that meets 5 or exceeds it?
[out] yes

[in] Could you please find out whether NC(=O)c1ncn([C@@H]2O[C@H](CO)[C@@H](O)[C@H]2O)n1 has pEC50 that meets 5 or exceeds it?
[out] no

[in] Could you please find out whether OC(c1ccccc1)c1nc2ccccc2[nH]1 (stereo not drawn) [HBB, 2-(α-hydroxybenzyl)-benzimidazole] has pEC50 that meets 5 or exceeds it?
[out] no

[in] Could you please find out whether C[C@@]1(O)[C@H](O)[C@@H](CO)O[C@H]1n1ccc(N)nc1=O has pEC50 that meets 5 or exceeds it?
[out] no

[in] Could you please find out whether Cc1cc(CCCOc2c(C)cc(-c3noc(C(F)(F)F)n3)cc2C)on1 has pEC50 that meets 5 or exceeds it?
[out] no

[in] Could you please find out whether C#CCC(C(=O)NC(C=CC(=O)OCC)CC1CCNC1=O)n1cccc(NC(=O)c2cc(C)on2)c1=O (centres unmarked) has pEC50 that meets 5 or exceeds it?
[out] yes

[in] Could you please find out whether CCOC(=O)/C=C/[C@H](C[C@@H]1CCNC1=O)NC(=O)[C@@H](CC(=O)[C@@H](NC(=O)c1cc(C)on1)C(C)C)Cc1ccc(F)cc1 has pEC50 that meets 5 or exceeds it?
[out] yes

----------
Below is a list of entries, each paired with its recorded pEC50 value.
# System: poliovirus Sabin strain 2 (PV2)
# ASSAY: microbe, parasite or virus in culture
# Format: cell-based
# CONDITION PARAMETERS: Enterovirus C, HeLa, 72 h, read-out: EC50 PV2
// returns pEC50 (minus log10 of molar concentration), number only

compound="CCOC(=O)c1ccc(OCCCC2CCN(c3ccc(C)nn3)CC2)cc1 [Pirodavir analog (R78206)]" value_observed=6.66
compound=CCOC(=O)/C=C/[C@H](C[C@@H]1CCNC1=O)NC(=O)[C@@H](CC(=O)[C@@H](NC(=O)c1cc(C)on1)C(C)C)Cc1ccc(F)cc1 value_observed=7.39
compound="CCOC(=O)c1ccc(OCCC2CCN(c3ccc(C)nn3)CC2)cc1 [Pirodavir (R77975)]" value_observed=5.77

With those in mind, consider the next compound.
Lab note: NC(=O)c1ncn([C@@H]2O[C@H](CO)[C@@H](O)[C@H]2O)n1 gave pEC50 of 4.19

----------
# ASSAY: in vitro
# CONDITION PARAMETERS: human
VALUE TYPE: CC50

molecule=[N-]=[N+]=N[C@]1(CO)O[C@@H](n2ccc(N)nc2=O)[C@H](O)[C@@H]1O value_observed="> 100 µM"
molecule=NC(=O)c1ncn([C@@H]2O[C@H](CO)[C@@H](O)[C@H]2O)n1 value_observed="> 100 µM"
molecule=Cc1cc(CCCOc2c(C)cc(-c3noc(C(F)(F)F)n3)cc2C)on1 value_observed="66 µM"
molecule="OC(c1ccccc1)c1nc2ccccc2[nH]1 (stereo not drawn) [HBB, 2-(α-hydroxybenzyl)-benzimidazole]" value_observed="> 400 µM"
molecule=C[C@@]1(O)[C@H](O)[C@@H](CO)O[C@H]1n1ccc(N)nc1=O value_observed="> 100 µM"

With those in mind, consider the next molecule.
Lab note: N=c1ccn(Cc2nc3ccccc3n2-c2ccc(F)cc2)cc1 gave CC50 of > 100 µM
